The measured values listed here are drawn from PubChem BioAssay.

target entity: Albumin (Bos taurus)
experiment summary: bovine serum albumin binders on microarray, profiling panel, artefact control for SMM control protein annotation, biochemical, small-molecule microarray, Alexa647 label, 635/667 nm fluorescence (AID 1118);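 further: score merges 667 nm emission intensity and signal-to-noise per printed compound spot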
measurement parameters: BSA-A647 binding, fluorescence 635 nm, higher = more signal
// reported composite z-score for each item listed
test readout: composite z-score

• CC(C)C[C@@H]1NC(=O)[C@H]2C[C@@H](C(=O)NCCCCCCN(C)C)[C@@H](c3cccc(OCCO)c3)N2C1=O = -0.615
• CCCCc1nc2c(c3c1C[C@H](C)OC3)CN(CCC(C)C)CC2 = 0.627
• O=C1[C@H]2[C@H]3[C@H](O)[C@H](O)CC(=NOCc4ccccc4)[C@H]3CC[C@H]2C(=O)N1C[C@@H]1CCCO1 = 0.5
• C[C@H](c1ccccc1)N1C(=O)[C@H]2[C@@H]3C(=CC[C@H]2C1=O)C(=O)[C@H]1O[C@H]1[C@H]3O = 0.166
• CCCCC(=C=CC[C@H](O)c1ccccc1OCCO)C[C@H](O)COCc1ccccc1 = 0.355
• CCOC(=O)CCN1C(=O)[C@H]2[C@H]3[C@H](O)[C@H](O)CC(=NOC[C@@H](O)COCc4ccco4)[C@@H]3CC[C@H]2C1=O = 0.723
• COC(=O)C1=CCC(c2cccc(Cl)c2)O1 (stereo not given) = 0.431
• CO[C@@H]1COC(=O)CC=C[C@@H](C)[C@@H]2C=C[C@@H](O)[C@@H](COC(=O)CC=C[C@H]1C)O2 = -0.805
• COc1ccc(O[C@H]2C=C[C@@H](c3ccccc3)O[C@@H]2CON=C[C@@H](C)[C@H](OCc2ccccc2)C(C)C)cc1 = -0.136
• COc1ccc(O[C@H]2C=C[C@@H](c3ccccc3)O[C@@H]2COC(=O)CCC(C)=NO[C@@H](C)c2cc(-c3c(C)cc(C)cc3C)no2)cc1 = -0.0567
• CCCNC(=O)OC[C@H]1O[C@H](CCON=C[C@@H](OC)[C@H](C)C=CCC(=O)OC)C=C[C@@H]1Oc1ccc(OC)cc1 = -1.05
• COC(=O)[C@@]1(Cc2ccc(F)cc2)[C@@H]2C(=CC(=O)[C@H]2CC(=O)C(=O)N(C)C)CN1C(=O)c1ccccc1 = 0.979
• CC(CCN1CCCCc2nc(C)c(C)cc21)=NOC(C)CN1CCCc2nc(C)c(C)cc21 (stereo not given) = 0.493
• O=C1[C@H]2[C@H]3[C@H](O)[C@H](O)CC(=NOC[C@@H](O)COCc4ccco4)[C@H]3CC[C@H]2C(=O)N1C1CCCCC1 = -0.709
• O=C1[C@H]2[C@H]3[C@H](O)[C@H](O)CC(=NOC[C@@H](O)COCc4ccco4)[C@H]3CC[C@H]2C(=O)N1c1cccc(Oc2ccccc2)c1 = 0.355
• COCCOC(=O)N1C(=O)[C@@]2(c3cc(C#CC4(O)CCCCCC4)ccc31)[C@H](c1ccc(OCCO)cc1)N1[C@H](c3ccccc3)[C@H](c3ccccc3)OC(=O)[C@H]1[C@@H]2C(=O)NC[C@H](O)c1ccccc1 = 0.203
• COc1ccc(O[C@H]2C=C[C@@H](c3ccccc3)O[C@@H]2COC(=O)CCC(C)=NOCC[C@@H]2C=C[C@H](OC(C)=O)[C@@H](COC(C)=O)O2)cc1 = -0.598
• CC(C)CON=C1C[C@@H](O)[C@@H](O)[C@@H]2[C@@H]3C(=O)N(C[C@@H]4CCCO4)C(=O)[C@@H]3CC[C@H]12 = -0.3
• COCCOC(=O)N1C(=O)[C@@]2(c3cc(C#Cc4ccc(OC)cc4)ccc31)[C@H](C(=O)N1CCN(c3ncccn3)CC1)[C@H]1C(=O)O[C@H](c3ccccc3)[C@H](c3ccccc3)N1[C@@H]2c1ccc(OCCO)cc1 = -0.447
• O=C1[C@H]2[C@H]3[C@H](O)[C@H](O)CC(=NOC[C@@H](O)COCc4ccco4)[C@H]3CC[C@H]2C(=O)N1Cc1ccc2c(c1)OCO2 = -0.244
• COC(=O)[C@H](C)NC(=O)CCC1CC(OC(=O)NCc2cccc3ccccc23)CC2(CCCC(COC(=O)NCC3CCCCC3)O2)O1 (stereo not given in full) = -0.409
• C[C@H]1Cc2c(-c3ccccc3)nc3c(c2CO1)CN(CCOc1ccccc1)CC3 = 0.68
• CC(C)(C)OC(=O)CC[C@]1(C(=O)NCc2ccccc2)N=C(c2ccc(OCCCO)cc2)O[C@H]1c1ccccc1 = 0.912
• C=C(/C(=C/C[C@@H](OC(=O)c1ccncc1)c1ccc(OCCO)cc1)c1cnc2ccccc2c1)C(C)C = 0.155
• COC(=O)[C@H]1COC(c2ccc(OCCCO)cc2)=N1 = 0.543
• CCOc1ccc(N2C(=O)/C(=C/C=C/c3ccccc3OC)S(=O)(=O)C2c2cccc([N+](=O)[O-])c2)cc1 (stereo not given) = 0.382
• [N-]=[N+]=NCc1ccccc1C[C@]1(C(=O)NCc2ccccc2)N=C(c2ccc(OCCCO)cc2)O[C@H]1c1ccccc1N=[N+]=[N-] = 0.841
• O=C1C[C@@H](O)[C@@H](O)[C@@H]2[C@@H]3C(=O)N(c4cccc(Oc5ccccc5)c4)C(=O)[C@@H]3CC[C@@H]12 = 0.164
• C#C[C@@H]1Oc2ccccc2S(=O)(=O)N2CCC[C@H]12 = -0.13
• CCc1cc2c(nc1CC)CCN(CCC(C)=NO[C@@H](C)c1cc(-c3c(C)cc(C)cc3C)no1)C2 = 0.417
